Values from patent US9988381B2

Target: c-Met kinase domain recombinant protein (Homo sapiens, UniProt P08581)
Construct: 50 μL diluted solution of c-Met kinase domain recombinant protein in reaction buffer was added to initiate the reaction
Sequence (P08581 1078-1345 limits assumed): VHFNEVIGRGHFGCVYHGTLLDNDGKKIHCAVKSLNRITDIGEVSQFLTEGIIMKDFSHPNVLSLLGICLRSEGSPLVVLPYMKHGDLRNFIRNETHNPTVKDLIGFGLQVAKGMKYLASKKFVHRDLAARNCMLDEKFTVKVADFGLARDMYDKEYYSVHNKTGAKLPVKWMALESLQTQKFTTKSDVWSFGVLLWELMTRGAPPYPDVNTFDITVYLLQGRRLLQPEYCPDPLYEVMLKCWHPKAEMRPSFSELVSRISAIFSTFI
Assay: biochemical
Conditions: read-out: Average inhibition rate at 1 μM (%)
Answer each item with its documented inhibition at 1 µM.

Completed entries (count: 2):
CS(=O)(=O)Nc1ccc(-c2cnc3cnn(S(=O)(=O)c4cnc5ccccn45)c3c2)cc1 ... 49.3%
Cn1cc(-c2cnc3cnn(S(=O)(=O)c4cnc5ccc(-c6ccc(C#N)cc6)cn45)c3c2)cn1 ... 79.1%

Please supply inhibition at 1 µM for each of the following items, keeping them in order.
1. Cn1cc(-c2cnc3cnn(S(=O)(=O)c4cnc5ccc(-c6cccc(F)c6)cn45)c3c2)cn1
2. Cn1cc(-c2cnc3[nH]cc(S(=O)(=O)n4ncc5cccnc54)c3c2)cn1

66.6%
88.2%
